Test system: KB-3-1
Assay: Cytotoxic Profiling of Annotated Libraries Using Quantitative High-Throughput Screening (AID 1296008); also: nearly all actives have a fitted effect of over 60% in size
Conditions: Five cell lines viability, CellTiter-Glo ATP luminescence, 48-72 h
Inconclusive results are not listed. Activity calls are given as the source filed them. Calls follow the shape of the dose curve; as a rule, active = well fitted inhibition curve with a large enough effect; inconclusive = small, poorly fitted or top-dose-only effect; inactive = flat fitted curve, though single readings scatter.
Give one outcome, nothing more. List: active, inactive

Worked examples, 5 compounds total:
Oc1ccc(C2=Cc3ccc(O)cc3OC2)cc1 : active
CC[C@@H]1C=C(C)C[C@H](C)C[C@H](OC)[C@H]2O[C@@](O)(C(=O)C(=O)N3CCCC[C@@H]3C(=O)O[C@H](C(C)=C[C@@H]3CC[C@H](Cl)[C@H](OC)C3)[C@H](C)[C@@H](O)CC1=O)[C@H](C)C[C@H]2OC : inactive
c1ccc2c(-c3cnn4cc(-c5ccc(N6CCNCC6)cc5)cnc34)ccnc2c1 : active
Cc1ccc([C@@H]2O[C@H](CO)[C@@H](O)[C@H](O)[C@@H]2O)cc1Cc1ccc(-c2ccc(F)cc2)s1 : inactive
Cc1ccc(Nc2cc(-c3cccc(N4C(=O)c5ccccc5C4=O)c3)ncn2)cc1NS(C)(=O)=O : inactive

Inquiry: Would you mind telling me which call this test gave O=c1cc(-c2cccc3c2Sc2ccccc2S3)oc(N2CCOCC2)c1 ?
Reply text: inactive

Inquiry: For COc1ccc(-c2coc3cc(O)cc(O)c3c2=O)cc1 , which call appears in the assay record?
Reply text: inactive

Inquiry: So what was the verdict on O=C1C(Cl)=C(NCCN2CCOCC2)C(=O)c2ncccc21 in this test?
Reply text: active

Each recorded value in this set is attributed to PubChem BioAssay (NCATS).
